# ASSAY DETAILS: Antifungal activity against Hyphopichia burtonii DSM 70663 after 36 hrs by disc diffusion method
MEASUREMENT TYPE: Activity

Past entries and their recorded results:
COc1ccc(CCN2CCc3cc(OC)ccc3C2)cc1; Non-toxic
COc1cc2c(cc1O)CCN(CCc1ccc(F)cc1)C2; Toxic
Oc1ccc(CCN2CCc3cc(O)ccc3C2)cc1; Non-toxic
COc1ccc(CCN2CCc3cc(OC)c(O)cc3C2)cc1; Non-toxic
COc1cc2c(cc1O)CCN(CCc1ccccc1OC)C2; Non-toxic

Next compound, please.
Give reported Activity value for `COc1cccc(CCN2CCc3cc(O)c(OC)cc3C2)c1` Non-toxic
